- assayed_target: CDK2/cyclin A (Homo sapiens)
- Construct: made in house; host or cells: CDK2: insect cells (baculovirus); cyclin A: E. coli
- protocol_notes: Inhibition of CDK2/cyclin A retinoblastoma kinase activity (Ki; % inhibition)
- Type: biochemical
- test_parameters: at 0.03 μM
assay_endpoint: CDK2 % Inhibition at 0.03 μM (%)

// below: answered compounds
CCC(COC)NC(=O)c1ccc(Nc2nc(N)c(C(=O)c3c(F)cccc3F)s2)cc1 (centres unmarked)
6
C=CCN(C)C(=O)c1ccc(Nc2nc(N)c(C(=O)c3c(F)cccc3F)s2)cc1
−6

A. CCN(CC)CCNC(=O)c1ccc(Nc2nc(N)c(C(=O)c3c(F)cccc3F)s2)cc1
B. CN(C)C1CCN(C(=O)c2ccc(Nc3nc(N)c(C(=O)c4c(F)cccc4F)s3)cc2)C1 (centres unmarked) [Example G29]
Query: Lab note: record which item had the higher CDK2 % Inhibition at 0.03 μM, A or B . Give the chosen item's label as your response.
Result: A

###

- assayed_target: human CDK4/cyclin D3 (Homo sapiens)
- Construct: made in house; host or cells: insect cells co-infected with baculovirus vectors
- protocol_notes: Inhibition of CDK4/cyclin D retinoblastoma kinase activity (Ki; % inhibition)
- Assay type: biochemical
- test_parameters: 0.03 μM compound
assay_endpoint: CDK4 % Inhibition at 0.03 μM (%)

Cc1ccc([C@H](C)NC(=O)c2ccc(Nc3nc(N)c(C(=O)c4c(F)cccc4F)s3)cc2)cc1
34
COc1ccc(CCNC(=O)c2ccc(Nc3nc(N)c(C(=O)c4c(F)cccc4F)s3)cc2)cc1
26
Nc1nc(Nc2ccc(C(=O)NCc3ccc(F)c(F)c3)cc2)sc1C(=O)c1c(F)cccc1F
33
Nc1nc(Nc2ccc(C(=O)N[C@H](CO)Cc3ccccc3)cc2)sc1C(=O)c1c(F)cccc1F
1
Cc1ccc(CNC(=O)c2ccc(Nc3nc(N)c(C(=O)c4c(F)cccc4F)s3)cc2)o1
39
Nc1nc(Nc2ccc(C(=O)NCC3COc4ccccc4O3)cc2)sc1C(=O)c1c(F)cccc1F (centres unmarked)
15

a. COc1ccc(CNC(=O)c2ccc(Nc3nc(N)c(C(=O)c4c(F)cccc4F)s3)cc2)cc1OC
b. Nc1nc(Nc2ccc(C(=O)Nc3ccccc3F)cc2)sc1C(=O)c1c(F)cccc1F
Query: Lab note: record which item had the higher CDK4 % Inhibition at 0.03 μM, a or b . Give the chosen item's label as your response.
Result: b
(b: 14%, a: 6%)

###

- assayed_target: human CDK4/cyclin D3 (Homo sapiens, UniProt P11802)
- Construct: made in house; host or cells: insect cells co-infected with baculovirus vectors
- Sequence (P11802 whole entry): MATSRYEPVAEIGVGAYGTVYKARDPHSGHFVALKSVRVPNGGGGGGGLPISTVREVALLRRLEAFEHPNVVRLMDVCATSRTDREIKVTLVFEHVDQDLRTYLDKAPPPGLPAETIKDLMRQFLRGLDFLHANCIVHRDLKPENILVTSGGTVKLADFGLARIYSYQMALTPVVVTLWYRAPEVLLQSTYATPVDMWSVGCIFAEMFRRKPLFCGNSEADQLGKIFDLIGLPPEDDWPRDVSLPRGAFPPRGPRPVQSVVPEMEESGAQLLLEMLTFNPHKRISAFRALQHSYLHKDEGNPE
- Sequence (P30281 1-264 partner limits assumed): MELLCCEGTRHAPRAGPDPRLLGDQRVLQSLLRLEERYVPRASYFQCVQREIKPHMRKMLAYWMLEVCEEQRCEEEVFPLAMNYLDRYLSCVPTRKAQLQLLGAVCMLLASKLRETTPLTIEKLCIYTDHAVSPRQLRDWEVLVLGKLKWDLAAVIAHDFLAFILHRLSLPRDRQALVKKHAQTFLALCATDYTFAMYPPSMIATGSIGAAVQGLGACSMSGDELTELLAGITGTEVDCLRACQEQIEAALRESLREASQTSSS
- protocol_notes: Inhibition of CDK4/cyclin D retinoblastoma kinase activity (Ki; % inhibition)
- Format: biochemical
- test_parameters: at 0.03 μM
assay_endpoint: CDK4 % Inhibition at 0.03 μM (%)

// below: answered compounds
CC(C)C(CO)NC(=O)c1ccc(Nc2nc(N)c(C(=O)c3c(F)cccc3F)s2)cc1 (stereo not drawn)
18
CN(C(=O)c1ccc(Nc2nc(N)c(C(=O)c3c(F)cccc3F)s2)cc1)C1CCCCC1
12
Nc1nc(Nc2ccc(C(=O)N3CCSC3)cc2)sc1C(=O)c1c(F)cccc1F
10
CN(C(=O)c1ccc(Nc2nc(N)c(C(=O)c3c(F)cccc3F)s2)cc1)C1CCCC1
7
Nc1nc(Nc2ccc(C(=O)NC3CCN(Cc4ccccc4)CC3)cc2)sc1C(=O)c1c(F)cccc1F
54
Nc1nc(Nc2ccc(C(=O)Nc3cc(F)cc(F)c3)cc2)sc1C(=O)c1c(F)cccc1F
3
CCCN(CC1CC1)C(=O)c1ccc(Nc2nc(N)c(C(=O)c3c(F)cccc3F)s2)cc1
−10

1. CN(CC#N)C(=O)c1ccc(Nc2nc(N)c(C(=O)c3c(F)cccc3F)s2)cc1
2. Nc1nc(Nc2ccc(C(=O)Nc3ccc(-c4csnn4)cc3)cc2)sc1C(=O)c1c(F)cccc1F
Query: // compare measured CDK4 % Inhibition at 0.03 μM between 1 and 2 ; output the lower one Give the chosen item's label as your response.
Result: 2
(2: 5%, 1: 26%)

These data points were gathered from patent US6720346B2.
